# measurement-description: Pharmacokinetic analysis in blood plasma of cattle after single SC administration
# Format: in vivo
# measurement-context: bovine, plasma, sc, 10 mg/kg, cattle, SC 10 mg/kg 17.5% oily suspension, 72 h after administration
recorded-metric: concentration at 72 h (ng/mL)

molecule: COCCNCc1ccc(C#Cc2ccc(C(=O)N[C@H](C(=O)NO)C(C)(C)N)cc2)cc1
value-reported: 7.28

###

# measurement-description: Pharmacokinetic analysis in blood plasma of cattle after single SC administration
# Type: in vivo
# measurement-context: bovine, plasma, sc, 10 mg/kg, cattle, SC 10 mg/kg 15% aqueous solution, 0.5 h after administration
recorded-metric: concentration at 0.5 h (ng/mL)

molecule: COCCNCc1ccc(C#Cc2ccc(C(=O)N[C@H](C(=O)NO)C(C)(C)N)cc2)cc1
value-reported: 1630
